Provenance of the data: ChEMBL document CHEMBL5104216

assay_explanation: Redox activity of compound assessed as redox index at 10 uM measured by resazurin assay
Format: physicochemical
readout_label: Activity_index
Please reply with the number alone, leaving off any unit.

Query: Item under review: COC(=O)c1csc(Br)n1 . Reported Activity_index?
Reply: 0.8

Query: // repeat for CCOC(=O)c1cnc(Br)s1 and report
Reply: 1

Query: // repeat for Cc1nc(Br)sc1C(=O)O and report
Reply: 0.9

Query: // repeat for CCOC(=O)c1sc(Br)nc1C and report
Reply: 0.9

Query: // repeat for Cc1nc(CCl)cs1 and report
Reply: 0.9

More entries:
Query: Item under review: O=S(=O)(Cc1ccccc1)Nc1nccs1 . Reported Activity_index?
Reply: 2

Query: // repeat for O=C(O)c1scnc1Br and report
Reply: 0.9

Query: // repeat for Nc1nccs1 and report
Reply: 0.9

Query: // repeat for N#Cc1cnc(N)s1 and report
Reply: 1.2

Query: // repeat for N#Cc1cnc(Br)s1 and report
Reply: 1

Query: // repeat for O=C(O)c1csc(-c2ccncc2)n1 and report
Reply: 1

Query: // repeat for COC(=O)CC(=O)Nc1ncc(C#N)s1 and report
Reply: 1

Query: // repeat for Nc1ncc(Br)s1 and report
Reply: 1.1
